System: A549
Test: Cancer cell growth inhibition (CellTiter-Glo), A549
Type: cell-based, Human
Details: Homo sapiens; Lung Cancer, A549, 72 h treatment
Endpoint: IC50
Kindly report the value followed by its unit.

O=C(CCCCCNC(=O)c1[nH]c(-c2ccc(O)cc2)cc1-c1ccoc1)NO [Example 5]
4.35 µM

Hi team, please reply with IC50 for each item in this list.
1. O=C(CCCCCNC(=O)c1[nH]c(-c2ccc(O)cc2)cc1-c1ccccc1)NO [Example 2]
2. O=C(CCCCCNC(=O)c1[nH]c(-c2ccc(O)cc2)cc1-c1ccsc1)NO [Example 6]
3. O=C(CCCCCNC(=O)c1[nH]c(-c2ccccc2)cc1-c1ccc(O)cc1)NO [Example 1]

Response:
1: 8.25 µM; 2: 5.39 µM; 3: 4.65 µM
